target: uPAR-expressing HEC-265 human endometrial adenocarcinoma cells (Homo sapiens)
Sequence (Q03405 23-335): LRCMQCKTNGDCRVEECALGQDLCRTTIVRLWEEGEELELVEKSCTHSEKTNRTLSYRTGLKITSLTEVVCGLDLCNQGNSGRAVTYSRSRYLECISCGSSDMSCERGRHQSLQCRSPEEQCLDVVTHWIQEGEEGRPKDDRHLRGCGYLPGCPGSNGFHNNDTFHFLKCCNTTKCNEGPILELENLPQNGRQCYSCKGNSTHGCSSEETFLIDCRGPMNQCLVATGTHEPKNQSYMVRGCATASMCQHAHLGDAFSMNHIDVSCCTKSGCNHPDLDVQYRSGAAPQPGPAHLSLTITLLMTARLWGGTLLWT
Where a SMILES comes first, the peptide text is derived from it. Bridges are numbered along the chain shown (N, C = ends). [ ]: non-standard residue; d: D form. The star is where a group is joined. DOTA = O=C(O)CN1CCN(CC(=O)O)CCN(CC(=O)*)CCN(CC(=O)O)CC1; Lys(Me3) = C[N+](C)(C)CCCC[C@H](N)C(=O)O; Hyp = O=C(O)[C@@H]1C[C@@H](O)CN1; Pentanoyl(4-Me) = CC(C)CCC(=O)*; Cit = NC(=O)NCCC[C@H](N)C(=O)O; Nva = CCC[C@H](N)C(=O)O; Pentanoyl = CCCCC(=O)*; Sar = CNCC(=O)O
Entries and their measured IC50 follow.
measured-endpoint: IC50

- compound: "CCCCC(=O)N[C@@H](C)C(=O)N[C@@H](CCCNC(N)=O)C(=O)N[C@@H](CCC(N)=O)C(=O)N[C@@H](Cc1ccc(O)cc1)C(=O)N[C@@H](Cc1ccccc1)C(=O)N1CCC[C@H]1C(=O)N1C[C@H](O)C[C@H]1C(=O)N[C@H](C(=O)N[C@@H](CCC)C(=O)N[C@@H](CSC)C(N)=O)[C@@H](C)CC [UPAR-205] (Pentanoyl-A[Cit]QYFP[Hyp]I[Nva]C(Me)-NH2)"
  study-system: "uPAR-expressing HEC-265 human endometrial adenocarcinoma cells (Homo sapiens)"
  result: "≥ 126 nM"
- compound: "CCCCC(=O)N[C@H]1CSSC[C@@H](C(N)=O)NC(=O)[C@H](CCC)NC(=O)[C@H]([C@@H](C)CC)NC(=O)[C@@H]2C[C@@H](O)CN2C(=O)[C@@H]2CCCN2C(=O)[C@H](CC(C)C)NC(=O)[C@H](Cc2ccc(O)cc2)NC(=O)[C@H](CCC(N)=O)NC(=O)[C@H](CCCNC(=N)N)NC1=O [UPAR-197] (Pentanoyl-CRQYLP[Hyp]I[Nva]C-NH2; disulfide 1-10)"
  study-system: "uPAR-expressing HEC-265 human endometrial adenocarcinoma cells (Homo sapiens)"
  result: "12.6 to 31.6 nM"
- compound: "CCCCC(=O)N[C@H]1CSSC[C@@H](C(N)=O)NC(=O)[C@H](CCC)NC(=O)[C@H]([C@@H](C)CC)NC(=O)CN(C)C(=O)[C@@H]2CCCN2C(=O)[C@H](Cc2ccccc2)NC(=O)[C@H](Cc2ccc(O)cc2)NC(=O)[C@H](CCCCNC(=O)CN2CCN(CC(=O)O)CCN(CC(=O)O)CCN(CC(=O)O)CC2)NC(=O)[C@H](CCCNC(N)=O)NC1=O [UPAR-177] (Pentanoyl-C[Cit]K(DOTA)YFP[Sar]I[Nva]C-NH2; disulfide 1-10)"
  study-system: "uPAR-expressing HEC-265 human endometrial adenocarcinoma cells (Homo sapiens)"
  result: "≤ 10 nM"
- compound: "CCCCC(=O)N[C@H]1CSSC[C@@H](C(N)=O)NC(=O)[C@H](CCC)NC(=O)[C@H]([C@@H](C)CC)NC(=O)[C@@H]2C[C@@H](O)CN2C(=O)[C@@H]2CCCN2C(=O)[C@H](Cc2ccccc2)NC(=O)[C@H](Cc2ccc(O)cc2)NC(=O)[C@H](CCCCNC(=O)CN2CCN(CC(=O)O)CCN(CC(=O)O)CCN(CC(=O)O)CC2)NC(=O)[C@H](CCCC[N+](C)(C)C)NC1=O [UPAR-153] (Pentanoyl-C[Lys(Me3)]K(DOTA)YFP[Hyp]I[Nva]C-NH2; disulfide 1-10)"
  study-system: "uPAR-expressing HEC-265 human endometrial adenocarcinoma cells (Homo sapiens)"
  result: "≤ 10 nM"
- compound: "CC[C@H](C)[C@@H]1NC(=O)[C@@H](C)NC(=O)[C@@H]2CCCN2C(=O)[C@H](Cc2ccccc2)NC(=O)[C@H](Cc2ccc(O)cc2)NC(=O)[C@H](CCCCNC(=O)CN2CCN(CC(=O)O)CCN(CC(=O)O)CCN(CC(=O)O)CC2)NC(=O)[C@H](CCCNC(=N)N)NC(=O)[C@@H](NC(=O)CCC(C)C)CSSC[C@@H](C(N)=O)NC(=O)[C@H](CC(C)C)NC1=O [UPAR-176] ({Pentanoyl(4-Me)}-CRK(DOTA)YFP[dA]ILC-NH2; disulfide 1-10)"
  study-system: "uPAR-expressing HEC-265 human endometrial adenocarcinoma cells (Homo sapiens)"
  result: "≤ 10 nM"

Origin of values: patent EP4610269A1
